Documented shrunken log2 fold change across a set of sequences
# Tested on: Escherichia coli TOP10
# Test Method Notes: shrunken log2 fold change of peptide-encoding DNA abundance (4.5 h post-induction vs induction); higher = less antimicrobial activity (less host growth inhibition)
# Condition Notes: time post-induction: 4.5 h; library: site-saturation at positions 5, 18, 19, 20
Value Kind: shrunken log2 fold change

INSERT INTO measurements (sequence, measurement) VALUES
  ('RRIRERPPRLPRPRPRPKHEPRP', -0.205),
  ('RRIRIRPPRLPRPRPRPQVQPRP', -0.195),
  ('RRIRRRPPRLPRPRPRPTCCPRP', 0.397),
  ('RRIRPRPPRLPRPRPRPMMHPRP', -0.0262),
  ('RRIRYRPPRLPRPRPRPFKHPRP', -0.349),
  ('RRIRPRPPRLPRPRPRPYGQPRP', -0.169),
  ('RRIRMRPPRLPRPRPRPKDHPRP', 0.458);

###

# Tested on: Escherichia coli TOP10
# Test Method Notes: shrunken log2 fold change of peptide-encoding DNA abundance (4.5 h post-induction vs induction); higher = less antimicrobial activity (less host growth inhibition)
# Condition Notes: time post-induction: 4.5 h; library: site-saturation at positions 5, 18, 19, 20
Documented shrunken log2 fold change across a set of sequences
Value Kind: shrunken log2 fold change

INSERT INTO results (sequence, measurement) VALUES
  ('RRIRARPPRLPRPRPRPFEGPRP', 0.0201),
  ('RRIRNRPPRLPRPRPRPIVIPRP', -0.29),
  ('RRIRIRPPRLPRPRPRPMADPRP', -0.0382),
  ('RRIRTRPPRLPRPRPRPIQIPRP', 0.0193),
  ('RRIRKRPPRLPRPRPRPHVNPRP', 0.0388);

###

# Tested on: Escherichia coli TOP10;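 further: peptides expressed intracellularly from a pBAD plasmid library in pooled LB shake-flask culture, induced with 0.3% L-arabinose, DNA abundance read by NGS, three biological replicates, DESeq2 with apeglm shrinkage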
# Test Method Notes: shrunken log2 fold change of peptide-encoding DNA abundance (4.5 h post-induction vs induction); higher = less antimicrobial activity (less host growth inhibition)
# Condition Notes: time post-induction: 4.5 h; library: site-saturation at positions 5, 18, 19, 20
Value Kind: shrunken log2 fold change

INSERT INTO measurements (sequence, value_kind, measurement) VALUES
  ('RRIRPRPPRLPRPRPRPTARPRP', 'shrunken log2 fold change', 0.352),
  ('RRIRMRPPRLPRPRPRPFRQPRP', 'shrunken log2 fold change', 0.0135),
  ('RRIRLRPPRLPRPRPRPNRRPRP', 'shrunken log2 fold change', 0.0365),
  ('RRIRYRPPRLPRPRPRPWNPPRP', 'shrunken log2 fold change', -0.00498),
  ('RRIRSRPPRLPRPRPRPPLEPRP', 'shrunken log2 fold change', 0.367),
  ('RRIRERPPRLPRPRPRPALDPRP', 'shrunken log2 fold change', -0.0626),
  ('RRIRERPPRLPRPRPRPCSLPRP', 'shrunken log2 fold change', -0.264),
  ('RRIRMRPPRLPRPRPRPQPMPRP', 'shrunken log2 fold change', 0.838),
  ('RRIRFRPPRLPRPRPRPASSPRP', 'shrunken log2 fold change', -0.204),
  ('RRIRTRPPRLPRPRPRPCLLPRP', 'shrunken log2 fold change', -0.413),
  ('RRIRARPPRLPRPRPRPWMWPRP', 'shrunken log2 fold change', 0.213),
  ('RRIRRRPPRLPRPRPRPIVHPRP', 'shrunken log2 fold change', -0.0757),
  ('RRIRFRPPRLPRPRPRPWPQPRP', 'shrunken log2 fold change', 0.127),
  ('RRIRGRPPRLPRPRPRPIFGPRP', 'shrunken log2 fold change', -0.0743),
  ('RRIRWRPPRLPRPRPRPFPAPRP', 'shrunken log2 fold change', 0.342),
  ('RRIRVRPPRLPRPRPRPHDDPRP', 'shrunken log2 fold change', -0.162),
  ('RRIRTRPPRLPRPRPRPQTWPRP', 'shrunken log2 fold change', -0.18),
  ('RRIRWRPPRLPRPRPRPRTEPRP', 'shrunken log2 fold change', 0.225),
  ('RRIRVRPPRLPRPRPRPIHLPRP', 'shrunken log2 fold change', -0.197),
  ('RRIRCRPPRLPRPRPRPIWIPRP', 'shrunken log2 fold change', -0.291),
  ('RRIRNRPPRLPRPRPRPHTMPRP', 'shrunken log2 fold change', -0.298),
  ('RRIRCRPPRLPRPRPRPTGLPRP', 'shrunken log2 fold change', 0.106),
  ('RRIRPRPPRLPRPRPRPAIVPRP', 'shrunken log2 fold change', 0.119),
  ('RRIRKRPPRLPRPRPRPCDYPRP', 'shrunken log2 fold change', -0.0336),
  ('RRIRNRPPRLPRPRPRPPELPRP', 'shrunken log2 fold change', 0.142),
  ('RRIRRRPPRLPRPRPRPTMQPRP', 'shrunken log2 fold change', 0.275),
  ('RRIRHRPPRLPRPRPRPARIPRP', 'shrunken log2 fold change', 0.0499),
  ('RRIRHRPPRLPRPRPRPAHQPRP', 'shrunken log2 fold change', 0.0515),
  ('RRIRHRPPRLPRPRPRPCGEPRP', 'shrunken log2 fold change', -0.0851),
  ('RRIRFRPPRLPRPRPRPMFDPRP', 'shrunken log2 fold change', -0.155),
  ('RRIRMRPPRLPRPRPRPRNRPRP', 'shrunken log2 fold change', 0.687),
  ('RRIRDRPPRLPRPRPRPRWMPRP', 'shrunken log2 fold change', -0.176),
  ('RRIRSRPPRLPRPRPRPHTDPRP', 'shrunken log2 fold change', -0.216),
  ('RRIRKRPPRLPRPRPRPVTMPRP', 'shrunken log2 fold change', -0.0185),
  ('RRIRYRPPRLPRPRPRPTNKPRP', 'shrunken log2 fold change', -0.699),
  ('RRIRWRPPRLPRPRPRPHWRPRP', 'shrunken log2 fold change', 0.329),
  ('RRIRHRPPRLPRPRPRPCYWPRP', 'shrunken log2 fold change', -0.026),
  ('RRIRYRPPRLPRPRPRPGVCPRP', 'shrunken log2 fold change', -0.0493),
  ('RRIRVRPPRLPRPRPRPRCHPRP', 'shrunken log2 fold change', 0.115),
  ('RRIRWRPPRLPRPRPRPVEHPRP', 'shrunken log2 fold change', -0.287),
  ('RRIRMRPPRLPRPRPRPFSVPRP', 'shrunken log2 fold change', -0.0472),
  ('RRIRLRPPRLPRPRPRPYDVPRP', 'shrunken log2 fold change', -0.366),
  ('RRIRQRPPRLPRPRPRPYMHPRP', 'shrunken log2 fold change', -0.512),
  ('RRIRTRPPRLPRPRPRPIDHPRP', 'shrunken log2 fold change', -0.263),
  ('RRIRNRPPRLPRPRPRPIWDPRP', 'shrunken log2 fold change', -0.14),
  ('RRIRKRPPRLPRPRPRPPFIPRP', 'shrunken log2 fold change', -0.00551),
  ('RRIRGRPPRLPRPRPRPHSFPRP', 'shrunken log2 fold change', 2.05),
  ('RRIRSRPPRLPRPRPRPMRRPRP', 'shrunken log2 fold change', 0.732),
  ('RRIRIRPPRLPRPRPRPKTNPRP', 'shrunken log2 fold change', -0.334),
  ('RRIRERPPRLPRPRPRPRAQPRP', 'shrunken log2 fold change', 0.22),
  ('RRIRNRPPRLPRPRPRPTGRPRP', 'shrunken log2 fold change', 0.0525),
  ('RRIRWRPPRLPRPRPRPWYQPRP', 'shrunken log2 fold change', -0.179),
  ('RRIRVRPPRLPRPRPRPEQGPRP', 'shrunken log2 fold change', 0.0379),
  ('RRIRQRPPRLPRPRPRPMFGPRP', 'shrunken log2 fold change', 0.0107),
  ('RRIRDRPPRLPRPRPRPLGWPRP', 'shrunken log2 fold change', 0.366),
  ('RRIRDRPPRLPRPRPRPGDEPRP', 'shrunken log2 fold change', 0.0587),
  ('RRIRTRPPRLPRPRPRPCTTPRP', 'shrunken log2 fold change', -0.0816),
  ('RRIRLRPPRLPRPRPRPDNPPRP', 'shrunken log2 fold change', -0.231),
  ('RRIRLRPPRLPRPRPRPHVVPRP', 'shrunken log2 fold change', 0.00383),
  ('RRIRGRPPRLPRPRPRPAMRPRP', 'shrunken log2 fold change', 1.17),
  ('RRIRQRPPRLPRPRPRPHQVPRP', 'shrunken log2 fold change', -0.253);
